Collected pIC50 values appear next to each entry.
ASSAY_COMMENT: cells
CONDITIONS: Homo sapiens, HCT-116, 72 h
Description: Antiproliferative activity against human HCT116 cells after 72 hrs by MTT assay
The read-out pIC50 is expressed as -log10 of concentration in moles per litre.

>>> experimental_value("CN(Cc1cnc2nc(N)nc(N)c2n1)c1ccc(C(=O)N[C@@H](CCC(=O)O)C(=O)O)cc1 [METHOTREXATE]")
6.12
>>> experimental_value("NC1=NC2(CCSCC2)N(OCCCOc2cccc(Br)c2)C(N)=N1")
9.00
>>> experimental_value("Cc1ccc(OCCCON2C(N)=NC(N)=NC23CCOCC3)cc1")
5.62
>>> experimental_value("COc1ccc(OCCCON2C(N)=NC(N)=NC23CCOCC3)cc1")
5.82

-- ask Using the record for NC1=NC2(CCSCC2)N(OCCCOc2ccc(Cl)c(Cl)c2)C(N)=N1 , report its pIC50.
-- reply 9.00

----------
ASSAY_COMMENT: cells
CONDITIONS: Homo sapiens, HCT-116, 72 h
pIC50: −log10 of the molar value.
Label Criterion met when pIC50 is at or above 7; otherwise label Criterion not met.

Known results for compounds:
>>> label_class("NC1=NC2(CCSCC2)N(OCCCOc2ccc(Cl)cc2Cl)C(N)=N1")
"Criterion met"
>>> label_class("CC(C)(C)c1ccc(OCCCON2C(N)=NC(N)=NC23CCOCC3)cc1")
"Criterion not met"
>>> label_class("NC1=NC2(CCSCC2)N(OCCCOc2ccc(Br)cc2)C(N)=N1")
"Criterion met"
>>> label_class("Cc1cc(C)cc(OCCCON2C(N)=NC(N)=NC23CCOCC3)c1")
"Criterion not met"

Now, please, on to the next compound.
-- ask I'd appreciate it if you could say whether NC1=NC2(CCOCC2)N(OCCCOc2ccc(F)cc2)C(N)=N1 has pIC50 at least equal to 7.
-- reply Criterion not met

----------
ASSAY_COMMENT: Antiproliferative activity against human HL60 cells after 72 hrs by MTT assay
Format: functional, cell-based
CONDITIONS: HL-60, 72 h
pIC50: −log10 of the molar value.
Output Criterion met for pIC50 not less than 6; output Criterion not met otherwise.

-- ask Quick check: does COc1ccc(OCCCON2C(N)=NC(N)=NC23CCOCC3)cc1 have pIC50 greater than or equal to 6?
-- reply Criterion not met

-- ask I'd appreciate it if you could say whether NC1=NC2(CCOCC2)N(OCCCOc2ccccc2)C(N)=N1 has pIC50 at least equal to 6.
-- reply Criterion not met

-- ask Quick check, pIC50 >= 6? NC1=NC2(CCCCC2)N(OCCCOc2ccc(Cl)cc2)C(N)=N1
-- reply Criterion met

-- ask Exam item: decide whether the reported pIC50 for NC1=NC2(CCOCC2)N(OCCCOc2cccc(Cl)c2)C(N)=N1 is at least 6.
-- reply Criterion met

-- ask Hi team, for NC1=NC2(CCOCC2)N(OCCCOc2ccc(Cl)cc2)C(N)=N1 , is the recorded pIC50 at or above 6?
-- reply Criterion met

-- ask Please tell me: is the molecule NC1=NC2(CCSCC2)N(OCCCOc2cccc(Cl)c2)C(N)=N1 at or over 6 in terms of pIC50?
-- reply Criterion met

-- ask Would you say NC1=NC2(CCOCC2)N(OCCCOc2cccc(Cl)c2Cl)C(N)=N1 shows pIC50 at minimum 6?
-- reply Criterion met

----------
Readings of pIC50 for the listed compounds
ASSAY_COMMENT: Antiproliferative activity against human HL60 cells after 72 hrs by MTT assay
Format: functional, cell-based
CONDITIONS: HL-60, 72 h
Entry type: numeric. Quantity: pIC50, the -log10 of concentration in molar units.

>>> experimental_value("NC1=NC2(CCSCC2)N(OCCCOc2cccc(Cl)c2Cl)C(N)=N1")
7.52
>>> experimental_value("Br.NC1=NC2(CCOCC2)N(OCCCOc2ccc(Cl)cc2Cl)C(N)=N1")
6.48
>>> experimental_value("NC1=NC2(CCSCC2)N(OCCCOc2ccc(Cl)cc2Cl)C(N)=N1")
6.48
>>> experimental_value("NC1=NC2(CCSCC2)N(OCCCOc2ccc(Br)cc2)C(N)=N1")
6.46

API: the following record is the query input.
-- ask Quick one: pIC50 for NC1=NC2(CCOCC2)N(OCCCOc2cc(Cl)c(Cl)cc2Cl)C(N)=N1 ?
-- reply 5.63

----------
ASSAY_COMMENT: cells
CONDITIONS: Homo sapiens, A549, 72 h
Description: Antiproliferative activity against human A549 cells after 72 hrs by MTT assay
ENDPOINT: pIC50
pIC50 here: minus log base 10 of the concentration, concentration in moles per litre.

Below, 8 compounds whose answers are already recorded.
>>> experimental_value("NC1=NC2(CCOCC2)N(OCCCOc2ccc(Br)cc2)C(N)=N1")
6.55
>>> experimental_value("Cc1ccc(OCCCON2C(N)=NC(N)=NC23CCOCC3)cc1")
5.97
>>> experimental_value("NC1=NC2(CCSCC2)N(OCCCOc2ccccc2Br)C(N)=N1")
7.40
>>> experimental_value("NC1=NC2(CCSCC2)N(OCCCOc2ccc(Cl)c(Cl)c2)C(N)=N1")
9.00
>>> experimental_value("NC1=NC2(CCSCC2)N(OCCCOc2ccc(Cl)cc2)C(N)=N1")
6.24
>>> experimental_value("NC1=NC2(CCOCC2)N(OCCCOc2cc(Cl)c(Cl)cc2Cl)C(N)=N1")
6.17
>>> experimental_value("Cc1cc(C)cc(OCCCON2C(N)=NC(N)=NC23CCOCC3)c1")
6.15
>>> experimental_value("NC1=NC2(CCCCC2)N(OCCCOc2ccc(Cl)cc2)C(N)=N1")
6.00

-- ask Requested field: pIC50. Item: NC1=NC2(CCSCC2)N(OCCCOc2cccc(Cl)c2)C(N)=N1
-- reply 7.22

-- ask Which pIC50 reading was recorded for the compound NC1=NC2(CCSCC2)N(OCCCOc2cccc(Br)c2)C(N)=N1 ?
-- reply 7.30

-- ask If you can, please state the reported pIC50 value of NC1=NC2(CCOCC2)N(OCCCOc2ccccc2Br)C(N)=N1 .
-- reply 6.80

----------
ASSAY_COMMENT: cells
CONDITIONS: Homo sapiens, A549, 72 h
ENDPOINT: pIC50
pIC50 is a log-scale quantity: -log10 of the concentration expressed in molar.

Example entries begin here.
>>> experimental_value("NC1=NC2(CCOCC2)N(OCCCOc2ccccc2)C(N)=N1")
5.97
>>> experimental_value("CC(C)(C)c1ccc(OCCCON2C(N)=NC(N)=NC23CCOCC3)cc1")
6.30

-- ask Which pIC50 is reported for this compound? NC1=NC2(CCOCC2)N(OCCCOc2cccc(Cl)c2)C(N)=N1
-- reply 6.82

-- ask What does the record list as pIC50 for NC1=NC2(CCOCC2)N(OCCCOc2ccc(Cl)c(Cl)c2)C(N)=N1 ?
-- reply 6.10

-- ask I have this compound here, CN(Cc1cnc2nc(N)nc(N)c2n1)c1ccc(C(=O)N[C@@H](CCC(=O)O)C(=O)O)cc1 [METHOTREXATE] , and I need its recorded pIC50.
-- reply 6.60

-- ask Need pIC50 of NC1=NC2(CCSCC2)N(OCCCOc2ccccc2Cl)C(N)=N1 , thanks.
-- reply 7.10

-- ask // returns reported pIC50 for input COc1ccc(OCCCON2C(N)=NC(N)=NC23CCOCC3)cc1
-- reply 6.18

-- ask For the compound shown here, COc1cccc2c1C(=O)c1c(O)c3c(c(O)c1C2=O)C[C@@](O)(C(=O)CO)C[C@@H]3O[C@H]1C[C@H](N)[C@H](O)[C@H](C)O1 , give the reported pIC50.
-- reply 6.92

-- ask // query pIC50 value for entry NC1=NC2(CCOCC2)N(OCCCOc2cccc(Br)c2)C(N)=N1
-- reply 6.80

-- ask pIC50 for CC(C)(C)c1ccc(OCCCON2C(N)=NC(N)=NC23CCSCC3)cc1 ?
-- reply 9.00

-- ask Would you kindly share the measured pIC50 for NC1=NC2(CCSCC2)N(OCCCOc2ccc(Cl)cc2Cl)C(N)=N1 ?
-- reply 6.68

-- ask Param item = COc1ccc(OCCCON2C(N)=NC(N)=NC23CCSCC3)cc1 ; retrieve measured pIC50.
-- reply 6.62

-- ask Entry NC1=NC2(CCOCC2)N(OCCCOc2cccc(Cl)c2Cl)C(N)=N1 has what pIC50?
-- reply 7.00

-- ask Which pIC50 value belongs to NC1=NC2(CCOCC2)N(OCCCOc2ccc(Cl)cc2)C(N)=N1 ?
-- reply 6.44

-- ask # query: pIC50 of entry Br.NC1=NC2(CCOCC2)N(OCCCOc2ccc(Cl)cc2Cl)C(N)=N1
-- reply 7.15

-- ask Record request: pIC50 value, item NC1=NC2(CCSCC2)N(OCCCOc2ccc(Br)cc2)C(N)=N1
-- reply 6.13

-- ask Could you tell me which pIC50 is on file for NC1=NC2(CCSCC2)N(OCCCOc2cccc(Cl)c2Cl)C(N)=N1 ?
-- reply 9.00

-- ask Which value of pIC50 has been reported for NC1=NC2(CCOCC2)N(OCCCOc2ccccc2Cl)C(N)=N1 in the records?
-- reply 5.57

-- ask For the compound NC1=NC2(CCOCC2)N(OCCCOc2ccc(F)cc2)C(N)=N1 , what pIC50 is on record?
-- reply 5.97
